- System: CFTR-mediated chloride transport (Homo sapiens)
- Test Details: Corrector Assay A - membrane potential dye assay (enteroid cells)
- Condition Notes: % of chloride transport of triple combination control (1 μM (14S)-dispiro macrocycle + 3 μM tezacaftor + 300 nM ivacaftor)
Recorded Metric: Corrector Assay A % activity

Previously resolved entries follow.
CC(C)(C)c1ccc2c(n1)N1C[C@@H](CCC(C)(c3ccccn3)Nc3cccc(n3)S(=O)(=O)NC2=O)CC1(C)C (single isomer, unassigned) [Compound 45]	++ (++ is 30-60%)
CC1(C)C[C@@H]2CC[C@H](c3ccccn3)Nc3cccc(n3)S(=O)(=O)NC(=O)c3ccc(C4=CCC(F)(F)CC4)nc3N1C2	+++ (+++ is >60%)
CC(C)(C)c1ccc2c(n1)N1CC(CCCNc3cncc(n3)S(=O)(=O)NC2=O)CC1(C)C (single isomer, unassigned) [Compound 252]	++ (++ is 30-60%)
CC(C)(C)c1ccc2c(n1)N1C[C@@H](CC[C@H](c3cccc(CNCC(F)(F)F)n3)Nc3cccc(n3)S(=O)(=O)NC2=O)CC1(C)C	+++ (+++ is >60%)
CC(C)(C)c1ccc2c(n1)N1C[C@@H](CCC(c3ccc(C4CNC4)cn3)Nc3cccc(n3)S(=O)(=O)NC2=O)CC1(C)C (stereo partly drawn) [Compound 166]	+++ (+++ is >60%)
CC(C)(C)c1ccc2c(n1)N1C[C@@H](CC[C@@H](c3ncccn3)Nc3cccc(n3)S(=O)(=O)NC2=O)CC1(C)C (single isomer, unassigned) [Compound 206]	+++ (+++ is >60%)
CC(=O)N1CCC([C@@H]2CC[C@@H]3CN(c4nc(C(C)(C)C)ccc4C(=O)NS(=O)(=O)c4cccc(n4)N2)C(C)(C)C3)CC1 (single isomer, unassigned)	++ (++ is 30-60%)

Request: Specify Corrector Assay A % activity for Cc1cccc(C)c1[C@@H]1CC[C@@H]2CN(c3nc(C(C)(C)C)ccc3C(=O)NS(=O)(=O)c3cccc(n3)N1)C(C)(C)C2 (single isomer, unassigned) , system CFTR-mediated chloride transport (Homo sapiens).
Result: +++ (+++ is >60%)

====

- System: CFTR-mediated chloride transport (Homo sapiens, UniProt P13569)
- Test Details: Corrector Assay A - membrane potential dye assay (enteroid cells)
- Condition Notes: % of chloride transport of triple combination control (1 μM (14S)-dispiro macrocycle + 3 μM tezacaftor + 300 nM ivacaftor)
Recorded Metric: Corrector Assay A % activity

CC(C)(C)c1ccc2c(n1)N1C[C@@H](CC[C@@H](c3cc(CCN)ccn3)Nc3cccc(n3)S(=O)(=O)NC2=O)CC1(C)C (single isomer, unassigned) [Compound 84]	+++ (+++ is >60%)
CC(C)CC#Cc1ccc2c(n1)N1C[C@@H](CC[C@H](c3ccccn3)Nc3cccc(n3)S(=O)(=O)NC2=O)CC1(C)C	+++ (+++ is >60%)

====

- System: UniProt:P13569
- Test Details: Corrector Assay A - membrane potential dye assay (enteroid cells)
- Condition Notes: % of chloride transport of triple combination control (1 μM (14S)-dispiro macrocycle + 3 μM tezacaftor + 300 nM ivacaftor)
Recorded Metric: Corrector Assay A % activity

// solved cases for Corrector Assay A % activity follow
CC(C)(C)c1ccnc([C@H]2CC[C@@H]3CN(c4nc(-c5cccc(OCC6CCC6)n5)ccc4C(=O)NS(=O)(=O)c4cccc(n4)N2)C(C)(C)C3)c1	+++ (+++ is >60%)
CC(C)(C)OC(=O)N1CCC2(CC1)CC(NC(=O)C1CC[C@@H]3CN(c4nc(C(C)(C)C)ccc4C(=O)NS(=O)(=O)c4cccc(n4)N1)C(C)(C)C3)C2 (single isomer, unassigned)	+++ (+++ is >60%)
CC(C)(C)c1ccc2c(n1)N1C[C@@H](CCC(c3ccc(C4CCNCC4)cn3)Nc3cccc(n3)S(=O)(=O)NC2=O)CC1(C)C (stereo partly shown) [Compound 153]	++ (++ is 30-60%)
CC1(C)OCCc2cc3c(nc21)N1C[C@@H](CCC(c2ccccn2)Nc2cccc(n2)S(=O)(=O)NC3=O)CC1(C)C (single isomer, unassigned) [Compound 213]	++ (++ is 30-60%)
CC(C)(C)c1ccc2c(n1)N1C[C@@H](CC[C@H](c3cccc(CCC#N)n3)Nc3cccc(n3)S(=O)(=O)NC2=O)CC1(C)C	++ (++ is 30-60%)

Request: Look up and report Corrector Assay A % activity, with UniProt:P13569 as system, for CN(C)Cc1ccc(C2CC[C@@H]3CN(c4nc(C(C)(C)C)ccc4C(=O)NS(=O)(=O)c4cccc(n4)N2)C(C)(C)C3)nc1 (stereo partly shown) [Compound 102]
Result: +++ (+++ is >60%)

Request: Given CC(C)(C)c1ccc2c(n1)N1C[C@@H](CCC(c3cc(C(N)=O)ccn3)Nc3cccc(n3)S(=O)(=O)NC2=O)CC1(C)C (single isomer, unassigned) [Compound 83] , report its Corrector Assay A % activity on UniProt:P13569.
Result: ++ (++ is 30-60%)

Request: Enter recorded Corrector Assay A % activity with UniProt:P13569 for CC(C)(C)c1ccnc([C@H]2CC[C@@H]3CN(c4nc(-c5cccc(F)n5)ccc4C(=O)NS(=O)(=O)c4cccc(n4)N2)C(C)(C)C3)c1 here.
Result: +++ (+++ is >60%)

Request: Give measured Corrector Assay A % activity for CC(C)(C)c1ccc2c(n1)N1C[C@@H](CCC(c3ccc(-c4cc[nH]n4)cn3)Nc3cccc(n3)S(=O)(=O)NC2=O)CC1(C)C (stereo partly shown) [Compound 129] (UniProt:P13569).
Result: +++ (+++ is >60%)

Request: Report Corrector Assay A % activity on UniProt:P13569 for this entry: CC(C)(C)c1ccc2c(n1)N1C[C@@H](CC[C@H](c3cccc(C4CNC4)n3)Nc3cccc(n3)S(=O)(=O)NC2=O)CC1(C)C
Result: +++ (+++ is >60%)

Request: Quote Corrector Assay A % activity with test system UniProt:P13569 for CC(C)(C)c1ccc2c(n1)N1C[C@@H](CC[C@H](c3cccc(-c4ccn[nH]4)n3)Nc3cccc(n3)S(=O)(=O)NC2=O)CC1(C)C
Result: ++ (++ is 30-60%)

Request: Recall the reported Corrector Assay A % activity of CC(C)(C)C#Cc1ccc2c(n1)N1C[C@@H](CC[C@@H](c3ccccn3)Nc3cccc(n3)S(=O)(=O)NC2=O)CC1(C)C on UniProt:P13569 and write it down.
Result: ++ (++ is 30-60%)

Request: Answer briefly: Corrector Assay A % activity recorded on UniProt:P13569 for CC1(C)CCCc2cc3c(nc21)N1C[C@@H](CCC(c2ccccn2)Nc2cccc(n2)S(=O)(=O)NC3=O)CC1(C)C (single isomer, unassigned) [Compound 263]
Result: +++ (+++ is >60%)

Request: Look up and report measured Corrector Assay A % activity (UniProt:P13569) for the following compound: CC1(C)C[C@@H]2CC[C@H](c3ccccn3)Nc3cccc(n3)S(=O)(=O)NC(=O)c3ccc(C4CCC4)nc3N1C2
Result: +++ (+++ is >60%)

Request: Enter Corrector Assay A % activity (test system UniProt:P13569) for CC1(C)C[C@@H]2CC[C@H](c3ccccn3)Nc3cccc(n3)S(=O)(=O)NC(=O)c3ccc(-c4c(Cl)cccc4Cl)nc3N1C2
Result: +++ (+++ is >60%)
